assayed_system: T1, UNK ZnF1-3 (human, UniProt Q9C0B0 31-174)
T1 sequence: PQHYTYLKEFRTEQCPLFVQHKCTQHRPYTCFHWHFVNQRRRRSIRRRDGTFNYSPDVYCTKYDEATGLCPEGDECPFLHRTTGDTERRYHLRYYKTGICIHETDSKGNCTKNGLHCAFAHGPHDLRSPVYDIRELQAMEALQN
experimental_details: nsRBNS (natural sequence RNA bind-n-seq); RBNS binding buffer (assumed for nsRBNS): 25 mM Tris pH 7.5, 150 mM KCl, 3 mM MgCl2, 0.01% Triton X-100, 500 ug/ml BSA, 20 U/ml SUPERase-In, 4 C; UNK is unkempt and MSI1 is Musashi-1; names of the RNAs are library labels; protein concentration not given here; high values mean tight binding
In all, about 24,000 sequences were measured (“enrichment r”: median about 0.99, highest 2% from about 3.7 on). Not all results are given here.
Measured binding signal values are reported for all entries that follow.
Provide only the numeric value, understood in enrichment R.

{"binder": "46683936_46684056_841_CDS_ENSMUSG00000033319_ENSMUST00000036226|mouse|control|control (ssRNA) RNA: GGGAGUUCUACAGUCCGACGAUCUCGAAGAGGAGUUGAGUUGGUUAAAGUCGUGUUGUUGACAGAUGCUCCGUGAUUUAACAAAGACUGGACAACCUUCAGAUGUCCUGCUGCAGAAGCGGCCCAUAAAGGGGGGGCCCCCUCCAACAGAGGAUUGAGCAUCA", "metric_name": "binding signal", "readout_units": "enrichment R", "reported_value": 1.3}

Kindly review the next binder as well.
Noted for chr18:32579733:32579734:+_ENSMUSG00000024381_ENSMUST00000025239|mus_mus|motif|central (ssRNA) RNA: GGGAGUUCUACAGUCCGACGAUCUUUAUGGAAGUUUUCCUCCAGACCCGCGAUGCUCUGGAACGUGUUGACAUAGAAACCGGCACGGCUGUUCCACAGGGAUGGCAGCUCCUCCUGCAGAUCCACGUUCAUCUCCUCGAACACCAACAGAGGAUUGAGCAUCA : its binding signal reads 0.625
